molecular target: Tyrosinase (Agaricus bisporus); assay: Inhibition of mushroom tyrosinase at 25 uM using L-tyrosine as substrate incubated for 30 mins relative to control
Measured inhibition, listed per entry for reference.
MEASURED_ATTRIBUTE: inhibition (%)

> print(dat)
                         smiles.code                     target.desc  result.unit  measured.value
1  CN1CCN(C(=O)/C=C/c2ccc(O)cc2O)CC1  Tyrosinase (Agaricus bisporus)            %            94.4
2     O=C(/C=C/c1ccc(O)cc1O)N1CCOCC1  Tyrosinase (Agaricus bisporus)            %            95.7
3     O=C(/C=C/c1ccc(O)cc1O)NC1CCCC1  Tyrosinase (Agaricus bisporus)            %            94.1
4    O=C(/C=C/c1ccc(O)cc1O)Nc1ccccc1  Tyrosinase (Agaricus bisporus)            %            93.7
